tested on: Escherichia coli; assay: Inhibition of Escherichia coli DH5alpha pBSK-2 DNA cleavage in HEPES buffer at pH 8.0 after 8 hrs by agarose gel electrophoresis in presence of DMSO; set-up: concentration or dose not given beside the values
measurement.label: Activity (%)

{"compound.string": "CN(C)c1ccc(/C=N/O)cc1", "measurement.label": "Activity", "measurement": 8}
{"compound.string": "ONCc1ccc2c(c1)OCO2", "measurement.label": "Activity", "measurement": 16}
{"compound.string": "CN(C)c1ccc(CNO)cc1", "measurement.label": "Activity", "measurement": 12}

1. NOCc1ccccc1
2. ON(Cc1ccccc1)Cc1ccccc1
query: Please let me know which one, 1 or 2 , has a lower measured Activity value. // output: label of the selected item
result: 2
(2: 14%, 1: 73%)

----------
system: Escherichia coli; experiment: Inhibition of Escherichia coli DH5alpha pBSK-2 DNA cleavage in HEPES buffer at pH 8.0 after 8 hrs by agarose gel electrophoresis in presence of distamycin; parameters: concentration or dose not given beside the values
measurement.label: Activity (%)

{"compound.string": "ON(Cc1ccccc1)Cc1ccccc1", "measurement": 10}

A. CN(C)c1ccc(CNO)cc1
B. CN(C)c1ccc(/C=N/O)cc1
C. ONCc1ccc2c(c1)OCO2
D. NOCc1ccccc1
query: Rank descending by Activity. A complete answer lists every label in the requested sequence.
result: D, C, A, B
(D: 61%, C: 20%, A: 14%, B: 2%)
